Assay system: T1, biotinylated BMP-2 (R&D Systems, Item number 355-BM/CF) (human, UniProt P12643 283-396, biotinylated (sites not given))
T1 construct: Bought protein, biotinylated, captured on streptavidin plates (phage ELISA) or streptavidin donor beads (ALPHA); also called bone morphogenic protein-2
T1 sequence (P12643 283-396 limits assumed): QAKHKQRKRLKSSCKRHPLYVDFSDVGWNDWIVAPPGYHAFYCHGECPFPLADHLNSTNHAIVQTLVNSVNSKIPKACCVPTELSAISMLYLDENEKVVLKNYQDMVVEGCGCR
Assay info: phage ELISA, biotinylated BMP-2 captured on streptavidin-coated wells, HRP anti-M13 antibody, luminescence
No end group written: not given here.
Assay readout: binding result

Guide cases for binding result, answers given:
AGIRCPVDAIGLTANCSY (cysteine pairing not given here; also: displayed on phage pIX minor coat protein, not shown: pIX minor coat protein of the phage that carries the peptide) [phage displaying the peptide of SEQ ID NO: 21 on the pIX minor coat protein] = binds
AGPDCRLSPLQPAVCVW (cysteine pairing not given here; also: displayed on phage pIX minor coat protein, not shown: pIX minor coat protein of the phage that carries the peptide) [phage displaying the peptide of SEQ ID NO: 16 on the pIX minor coat protein] = binds
AGSTCIPSMTPLCPS (cysteine pairing not given here; also: displayed on phage pIX minor coat protein, not shown: pIX minor coat protein of the phage that carries the peptide) [phage displaying the peptide of SEQ ID NO: 13 on the pIX minor coat protein] = binds
AGASCSPGLHPLCPG (cysteine pairing not given here; also: displayed on phage pIX minor coat protein, not shown: pIX minor coat protein of the phage that carries the peptide) [phage displaying the peptide of SEQ ID NO: 12 on the pIX minor coat protein] = binds
AGRECLPQFGLPLCPD (cysteine pairing not given here; also: displayed on phage pIX minor coat protein, not shown: pIX minor coat protein of the phage that carries the peptide) [phage displaying the peptide of SEQ ID NO: 14 on the pIX minor coat protein] = binds
AGTVCPPDLTGLTAACYY (cysteine pairing not given here; also: displayed on phage pIX minor coat protein, not shown: pIX minor coat protein of the phage that carries the peptide) [phage displaying the peptide of SEQ ID NO: 19 on the pIX minor coat protein] = binds

Any idea what its binding result is? The binder is AGYRRPIQPGPEAVSLL (also: displayed on phage pIX minor coat protein, junction not given here, not shown: pIX minor coat protein of the phage that carries the peptide) [phage displaying the peptide of SEQ ID NO: 5 on the pIX minor coat protein]
binds

What about this binder? AGTLCGVDDYTGLTGCLA (cysteine pairing not given here; also: displayed on phage pIX minor coat protein, not shown: pIX minor coat protein of the phage that carries the peptide) [phage displaying the peptide of SEQ ID NO: 20 on the pIX minor coat protein]
binds

What about this binder? AGPPGPYIAASAFLALK (also: displayed on phage pIX minor coat protein, junction not given here, not shown: pIX minor coat protein of the phage that carries the peptide) [phage displaying the peptide of SEQ ID NO: 2 on the pIX minor coat protein]
binds
